System: HS 578T breast
procedure-text: NCI tumour cell line growth inhibition, 48 h
Each record here notes measured TGI.
Return type: number; implicit unit µM.

- molecule: "N#Cc1c(-c2ccccc2)/c(=C\\O)c(=O)n2c1nc1ccccc12"
  numeric-readout: 91.8
- molecule: "NC1CC(=O)c2csc(Br)c21 (centres undefined)"
  numeric-readout: 46.5
- molecule: "C=C(C=O)c1c2c(nc3ccccc13)C(=O)c1ccccc1C2=O"
  numeric-readout: 0.961
- molecule: "COC(=O)CCC(=O)c1c(C)[nH]c(/C=C2\\N=C(c3ccc[nH]3)C=C2OC)c1C"
  numeric-readout: 4.07

Q) Looking for the measured TGI of COc1cc(-c2[nH]ccc2Cl)oc1C1=C2N=C3C=C2C(C(C)C)C1CCCCCCCC3 (centres undefined) , can you help?
A) 1.41

* * *

System: HCT-15 colon
procedure-text: NCI tumour cell line growth inhibition, 48 h
property-label: TGI

# example entries with known answers
- compound: "O=C(Nc1c(-c2nc3ccccc3[nH]2)sc(=S)n1-c1ccccc1)c1ccccc1"
  TGI: "> 100 µM"
- compound: "O=C(/C=C/c1ccc(O)c(O)c1)OCCc1cccc2ccccc12"
  TGI: "9.64 µM"

Q) Param readout = TGI; param system = HCT-15 colon; param query = Cc1nn(C(=O)c2ccc(Cl)cc2)c2c1C(c1ccc([N+](=O)[O-])cc1)SC(N)=N2 (centres undefined) ; response: value
A) > 10 µM

Q) Provide the documented TGI with HCT-15 colon as the system for CCN(CC)CCOc1ccc(/C=C2\CC3C4CCC5=CC(=O)CC[C@]5(C)C4CC[C@]3(C)C2=O)cc1OC (some centres undefined)
A) 10.5 µM

Q) Request body: readout TGI, system HCT-15 colon, query COc1cc(-c2[nH]ccc2Cl)oc1C1=C2N=C3C=C2C(C(C)C)C1CCCCCCCC3 (centres undefined) . Return the value.
A) 1.86 µM

* * *

Entries and their GI50 values follow.
Tested on: MALME-3M melanoma
procedure-text: NCI tumour cell line growth inhibition, 48 h

Worked cases, GI50 given:
- compound: "CCCN(CCC)c1ccc(CO)c(C)c1"
  result: "11.3 µM"
- compound: "COCCOC(=O)C1=C(C)NC2=C(C(=O)CC(c3ccccc3OC)C2)C1c1cccc(O)c1 (stereo unspecified)"
  result: "13.9 µM"
- compound: "COC(CCP(=O)(c1ccccc1)c1ccccc1)(C(=O)c1ccccc1)c1ccccc1 (stereo unspecified)"
  result: "2.78 µM"

For the next question, use this compound.
Q) Enter reported GI50 observed with MALME-3M melanoma for CC(ONC(=O)c1cc(C(F)(F)F)cc(C(F)(F)F)c1)C(=O)Nc1ccc(Cl)cc1 (stereo unspecified)
A) 3.83 µM

* * *

Test system: SF-268 CNS
procedure-text: NCI tumour cell line growth inhibition, 48 h
property-label: GI50

- compound: "CC(=O)/C=C/C1=C(c2cc3ccccc3s2)c2ccccc2CC1"
  property-label: "GI50"
  result: "27.1 µM"
- compound: "C(=C1c2ccccc2-c2ccccc21)c1ccccn1"
  property-label: "GI50"
  result: "12.4 µM"
- compound: "CN1C(=O)CNC(=O)[C@H](NC(=O)c2nc3ccccc3cc2O)CSSC[C@H]1C(=O)NCCc1nc2ccccc2cc1O"
  property-label: "GI50"
  result: "4.19 µM"
- compound: "CCN(CC)c1ccc2c(c1)Oc1nc(N)c(C#N)c(N)c1C2Sc1ccc(SC)cc1 (stereo unspecified)"
  property-label: "GI50"
  result: "1.69 µM"
- compound: "O=C1/C(=C/c2ccccc2Cl)N=C(c2ccccc2)N1Cc1ccco1"
  property-label: "GI50"
  result: "50.2 µM"
- compound: "O=C(Nc1cc(C(F)(F)F)ccc1F)Nc1n[nH]c2ccccc12"
  property-label: "GI50"
  result: "> 100 µM"
- compound: "CCCCCCCCCCCCCCCc1cc(O)ccc1N"
  property-label: "GI50"
  result: "4.33 µM"
- compound: "CCCN(CCC)c1ccc(CO)c(C)c1"
  property-label: "GI50"
  result: "63.7 µM"
- compound: "CCC[C@H](N[C@@H]1CCc2cc(F)cc(F)c2C1)C(=O)Nc1cn(C(C)(C)CNCC(C)(C)C)cn1"
  property-label: "GI50"
  result: "20.4 µM"
- compound: "CS(=O)(=O)CCNCc1ccc(-c2ccc3ncnc(Nc4ccc(OCc5cccc(C(F)(F)F)c5)cc4)c3c2)o1"
  property-label: "GI50"
  result: "4.54 µM"

The record that follows has no GI50 shown yet.
Q) Given the compound ClCCN(CCCl)c1ccc(-n2cnc3c(Cl)ncnc32)cc1 , what is its reported GI50?
A) 1.81 µM

* * *

Tested on: U251 CNS
procedure-text: NCI tumour cell line growth inhibition, 48 h
Returns Condition met if the recorded TGI is greater than or equal to 20 µM, and Condition not met otherwise.

- compound: "O=c1[nH]c2ccc(CC(=S)N3CCOCC3)cc2s1"
  assigned-category: "Condition met"
- compound: "NC(=O)CCC(NCc1c2ccccc2[n+]([O-])c2ccccc12)C(=O)O (stereo unspecified)"
  assigned-category: "Condition met"
- compound: "COc1ccc2c(c1)CC[C@@H]1[C@@H]2CC[C@@]2(C)[C@H]1CC1(CCCCC1)[C@@H]2O"
  assigned-category: "Condition met"
- compound: "COP(C)(=O)/C(Cc1ccccc1)=N\\O (stereo unspecified)"
  assigned-category: "Condition met"
- compound: "O=C1Nc2ccccc2C1Cc1ccccc1 (stereo unspecified)"
  assigned-category: "Condition met"
- compound: "N#Cc1c(-c2ccccc2)/c(=C\\O)c(=O)n2c1nc1ccccc12"
  assigned-category: "Condition met"
- compound: "O=C1CCCc2c1c1c(n2Cc2ccccc2)-c2ccccc2C1=O"
  assigned-category: "Condition met"
- compound: "Cn1c(COC(=O)N2CCCCC2)nc2c(N3CCOCC3)nc(-c3ccccc3)nc21"
  assigned-category: "Condition not met"
- compound: "NNC(=O)CNC(=O)CSc1nnc(COc2ccc(Cl)cc2)n1-c1ccccc1"
  assigned-category: "Condition met"
- compound: "O=C1C=C(Nc2ccccc2C(=O)CC(=O)C(=O)Nc2cccc(C(F)(F)F)c2)c2ccccc2C1=O"
  assigned-category: "Condition met"

Q) State whether the measured TGI reaches 20 µM, counting equality as reaching it, for CCCNCc1nc2ccc(Br)cc2c(=O)n1CCC
A) Condition met

Q) Reported TGI reaches at least 20 µM for COc1ccc(Cc2nc3cc(C(F)(F)F)ccc3n2CCCN(C)C)cc1 ?
A) Condition met

Q) Would you say COC(CCP(=O)(c1ccccc1)c1ccccc1)(C(=O)c1ccccc1)c1ccccc1 (stereo unspecified) shows TGI at minimum 20 µM?
A) Condition not met

Q) Determine whether this compound has TGI no lower than 20 µM: O=C(OCCOCBr)c1ccccc1
A) Condition met

Q) Is TGI for C=C1CC(CCCl)(c2ccccc2)OC1=O (stereo unspecified) at or above 20 µM?
A) Condition met

Q) Does the compound CC(=O)O[C@@H]1CO[C@H]2O[C@H]3[C@@H](C(C=O)=C[C@H](O)[C@@H]4C5=C(C(C)C)CC[C@]5(C)CC[C@@]34C)[C@@]2(O)C1=O have recorded TGI that is 20 µM or more?
A) Condition not met

Q) Is reported TGI greater than or equal to 20 µM here: O=C1c2ccccc2-c2nc(-c3cccnc3)cc3c2c1nc1ccccc13
A) Condition met

Q) Dear colleague, could you confirm whether Cc1c(C(=O)/C=C/c2ccc(Cl)cc2)[n+](=O)c2ccccc2n1[O-] has TGI at or above 20 µM?
A) Condition met

Q) TGI >= 20 µM for CC(=O)O[C@H]1C[C@]2(C)C(CCC3O[C@@]32C)[C@@]2(CC(c3ccoc3)OC2O)[C@@H]1C (stereo partly specified) ?
A) Condition met

Q) Hi team, for COc1ccc2c3c1C(=O)CCC3CO2 (stereo unspecified) , is the recorded TGI at or above 20 µM?
A) Condition met

* * *

System: UO-31 renal
procedure-text: NCI tumour cell line growth inhibition, 48 h
Measured TGI accompanies every entry in the list below.

- compound: "Cc1nc2c(o1)C(=O)c1ccccc1/C2=N/c1ccccn1"
  result: "39.3 µM"
- compound: "O=C1C=C(Nc2ccccc2C(=O)CC(=O)C(=O)Nc2cccc(C(F)(F)F)c2)c2ccccc2C1=O"
  result: "> 80.1 µM"
- compound: "C=C=C(C)[Si](C)(C)C"
  result: "> 100 µM"
- compound: "O=C(COc1cccc(/C=C2\\COc3ccccc3C2=O)c1)Nc1nccs1"
  result: "2.91 µM"
- compound: "CC(C)OP(=O)(CN(C)/C(F)=N\\C(F)(F)F)OC(C)C"
  result: "> 100 µM"

Q) Query the reported TGI for UO-31 renal; item: O=C(CCC(=O)Nc1ccc(Cl)cc1)CC(=O)c1ccc(F)cc1
A) > 100 µM

Q) Hi! What's the reported TGI for COc1cc(OC)c2c(=O)c(O)c(-c3ccc(OC)c(OC)c3)oc2c1 on UO-31 renal?
A) > 100 µM

Q) Any idea what TGI came out for CCCN(CCC)c1ccc(CO)c(C)c1 on UO-31 renal?
A) > 100 µM
